# PROTOCOL NOTES: chemical genetic growth profiling, strain panel (AID 1159580);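 also: tested at 20 µM; growth read once vehicle control cultures reached saturation at 30 °C; lower values mean less growth of the strain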
# SETTINGS: S. cerevisiae deletion strains, growth OD, locus YFR010W, strain ubp6
Screen size: about 5,500 compounds; about 2,000 (36%) were called active. Roughly 18% stayed inconclusive and do not appear here. Rule as the data show it: active = normalized growth mostly below about 0.91 (no sharp cut-off); inconclusive = no clear call, values can overlap the other calls; inactive = mostly above about 0.92. This is one part of the list.
Outcome codes: t = active, f = inactive

{"COMPOUND": "CC(=O)O[C@H]1C[C@H](O[C@H]2[C@@H](O)C[C@H](O[C@H]3[C@@H](O)C[C@H](O[C@H]4CC[C@@]5(C)C(CCC6C5C[C@@H](O)[C@]5(C)[C@@H](C7=CC(=O)OC7)CC[C@]65O)C4)O[C@@H]3C)O[C@@H]2C)O[C@H](C)[C@H]1O[C@@H]1O[C@H](CO)[C@@H](O)[C@H](O)[C@H]1O (stereo not given in full)", "ASSIGNED LABEL": "f"}
{"COMPOUND": "CC(=O)O[C@H]1C[C@@]2(C)[C@H](c3ccoc3)OC(=O)[C@H]3O[C@]32[C@@]2(C)C1[C@]1(C)C(C[C@H]2OC(C)=O)C(C)(C)[C@H](OC(C)=O)C[C@@H]1OC(C)=O (stereo not given in full)", "ASSIGNED LABEL": "f"}
{"COMPOUND": "CC1=CCc2c(cc3oc(C)cc(=O)c3c2O)OC1", "ASSIGNED LABEL": "f"}
{"COMPOUND": "CC(=O)Oc1c(-c2ccccc2)oc2c(CC=C(C)C)c3c(c(OC(C)=O)c2c1=O)C=CC(C)(C)O3", "ASSIGNED LABEL": "f"}
{"COMPOUND": "COc1ccc(C(=O)/C=C/c2ccccc2)cc1", "ASSIGNED LABEL": "f"}
{"COMPOUND": "O=C(/C=C/c1ccccc1)c1ccc(O)cc1", "ASSIGNED LABEL": "t"}
{"COMPOUND": "Nc1nc(N)c2nc(-c3ccccc3)c(N)nc2n1", "ASSIGNED LABEL": "f"}
{"COMPOUND": "CN(C)CCC=C1c2ccccc2CCc2ccccc21", "ASSIGNED LABEL": "f"}
{"COMPOUND": "COc1ccc(-c2coc3cc(OC(C)=O)cc(OC(C)=O)c3c2=O)cc1", "ASSIGNED LABEL": "f"}
{"COMPOUND": "CN(C)CCC=C1c2ccccc2C=Cc2ccccc21", "ASSIGNED LABEL": "f"}
{"COMPOUND": "C[C@@H]1CC[C@@]2(OC1)OC1C(O)C3C4CC[C@H]5C[C@H](O[C@@H]6O[C@H](CO)[C@H](O[C@@H]7O[C@H](CO)[C@@H](O)[C@H](O[C@@H]8OC[C@@H](O)[C@H](O)[C@H]8O)[C@H]7O[C@@H]7O[C@H](CO)[C@H](O)[C@H](O[C@@H]8O[C@H](CO)[C@@H](O)[C@H](O)[C@H]8O)[C@H]7O)[C@H](O)[C@H]6O)[C@H](O)C[C@]5(C)C4CC[C@]3(C)C1[C@@H]2C (stereo not given in full)", "ASSIGNED LABEL": "f"}
{"COMPOUND": "NS(=O)(=O)c1cc2c(cc1C(F)(F)F)NCNS2(=O)=O", "ASSIGNED LABEL": "f"}
{"COMPOUND": "O=c1c(-c2ccc(O)cc2)coc2cc(O)cc(O)c12", "ASSIGNED LABEL": "f"}
{"COMPOUND": "CC(=O)O[C@@H]1CC2C(C)(C)[C@H](O)C[C@H](O)[C@]2(C)C2CC[C@@]3(C)[C@H](c4ccoc4)OC(=O)[C@H]4O[C@]43[C@@]21C (stereo not given in full)", "ASSIGNED LABEL": "f"}
{"COMPOUND": "CC(=O)O[C@@H]1CC2C(C)(C)CCC(=O)[C@]2(C)C2CC[C@@]3(C)[C@H](c4ccoc4)OC(=O)C4OC43[C@@]21C (stereo not given in full)", "ASSIGNED LABEL": "f"}
